# system: Growth hormone secretagogue receptor type 1 (Rattus norvegicus)
# protocol: Ability to release growth hormone in a rat pituitary cell assay
value-type: EC50 (nM)

Below: 10 compounds and their reported EC50.
> print(dat)
                                    compound                                    system  value.type  endpoint.value
 1  CCOC(=O)[C@@H]1CC2(CCN(C(=O)[C@@H](COCc3ccccc3)NC(=O)C(C)(C)N)CC2)c2ccccc21  Growth hormone secretagogue receptor type 1 (Rattus norvegicus)        EC50             6.6
 2  CC(C)(N)C(=O)N[C@H](CCCc1ccccc1)C(=O)N1CCC2(CC1)C[C@H](CC(=O)O)c1ccccc12  Growth hormone secretagogue receptor type 1 (Rattus norvegicus)        EC50             2.3
 3  CC(C)(N)C(=O)N[C@H](Cc1c[nH]c2ccccc12)C(=O)N1CCC2(CCc3ccccc32)CC1 [L-162752]  Growth hormone secretagogue receptor type 1 (Rattus norvegicus)        EC50              14
 4  CCOC(=O)[C@@H]1CC2(CCN(C(=O)[C@@H](CCCc3ccccc3)NC(=O)C(C)(C)N)CC2)c2ccccc21  Growth hormone secretagogue receptor type 1 (Rattus norvegicus)        EC50               2
 5  CC(C)(N)C(=O)N[C@H](COCc1ccccc1)C(=O)N1CCC2(CCc3ccccc32)CC1  Growth hormone secretagogue receptor type 1 (Rattus norvegicus)        EC50              17
 6  CCOC(=O)CCC1CC2(CCN(C(=O)[C@@H](CCCc3ccccc3)NC(=O)C(C)(C)N)CC2)c2ccccc21 (stereo partly drawn)  Growth hormone secretagogue receptor type 1 (Rattus norvegicus)        EC50             1.3
 7  CC(C)(N)CC(=O)N[C@@H]1CCc2ccccc2N(Cc2ccc(-c3ccccc3-c3nnn[nH]3)cc2)C1=O  Growth hormone secretagogue receptor type 1 (Rattus norvegicus)        EC50              60
 8  CC(C)(N)C(=O)N[C@H](CCCc1ccccc1)C(=O)N1CCC2(CC1)CC(CCC(=O)O)c1ccccc12 (stereo partly drawn)  Growth hormone secretagogue receptor type 1 (Rattus norvegicus)        EC50             2.5
 9  CC(C)(N)C(=O)N[C@H](CCCc1ccccc1)C(=O)N1CCC2(CC1)C[C@@H](CC(=O)O)c1ccccc12  Growth hormone secretagogue receptor type 1 (Rattus norvegicus)        EC50             1.9
10  CCOC(=O)[C@@H]1CC2(CCN(C(=O)[C@@H](Cc3c[nH]c4ccccc34)NC(=O)C(C)(C)N)CC2)c2ccccc21  Growth hormone secretagogue receptor type 1 (Rattus norvegicus)        EC50             8.3

a. CCOC(=O)C[C@H]1CC2(CCN(C(=O)[C@@H](CCCc3ccccc3)NC(=O)C(C)(C)N)CC2)c2ccccc21
b. C[C@@H](O)CNC(C)(C)CC(=O)N[C@@H]1CCc2ccccc2N(Cc2ccc(-c3ccccc3-c3nnn[nH]3)cc2)C1=O [L-692585]
Exam item: # return whichever of a and b has the smaller EC50 Please identify the chosen entry by its label.
Marked response: a
(a: 1 nM, b: 3 nM)

1. CCOC(=O)[C@H]1CC2(CCN(C(=O)[C@@H](COCc3ccccc3)NC(=O)C(C)(C)N)CC2)c2ccccc21
2. CCOC(=O)C[C@H]1CC2(CCN(C(=O)[C@@H](Cc3c[nH]c4ccccc34)NC(=O)C(C)(C)N)CC2)c2ccccc21
3. CC(C)(N)C(=O)N[C@H](Cc1c[nH]c2ccccc12)C(=O)N1CCC2(CC1)C[C@@H](CC(=O)O)c1ccccc12
4. CC(C)(N)C(=O)N[C@@H](CCCc1ccccc1)C(=O)N1CCC2(CCc3ccccc32)CC1
5. CCOC(=O)[C@H]1CC2(CCN(C(=O)[C@@H](CCCc3ccccc3)NC(=O)C(C)(C)N)CC2)c2ccccc21
Exam item: Order the 5 compounds from highest to lowest EC50. Put the labels in the order asked and list them.
Marked response: 2, 4, 3, 1, 5

1. CCOC(=O)[C@H]1CC2(CCN(C(=O)[C@@H](Cc3c[nH]c4ccccc34)NC(=O)C(C)(C)N)CC2)c2ccccc21
2. CC(C)(N)C(=O)N[C@H](CCCc1ccccc1)C(=O)N1CCC2(CC1)C[C@H](C(=O)O)c1ccccc12
3. CCOC(=O)C[C@@H]1CC2(CCN(C(=O)[C@@H](CCCc3ccccc3)NC(=O)C(C)(C)N)CC2)c2ccccc21
Exam item: In this exercise, place the 3 compounds in ascending sequence of their recorded EC50. Put the labels in the order asked and list them.
Marked response: 3, 2, 1

A. CCOC(=O)C[C@@H]1CC2(CCN(C(=O)[C@@H](Cc3c[nH]c4ccccc34)NC(=O)C(C)(C)N)CC2)c2ccccc21
B. CC(C)(N)C(=O)N[C@H](CCCc1ccccc1)C(=O)N1CCC2(CC1)C[C@@H](C(=O)O)c1ccccc12
Exam item: # return whichever of A and B has the smaller EC50 Please identify the chosen entry by its label.
Marked response: B
(B: 2.5 nM, A: 7 nM)

Origin of measurements: BindingDB's records for doi:10.1016/S0960-894X(97)00421-6
